- methodSummary: folding stability dG unfold from chymotrypsin proteolysis; higher = more stable
readout: folding stability dG unfold
Could you give the number and then its unit, please?

The examples below pair each entry with its known result.
recordSequence: SAGGSAGGSAKKPTAEEILKKLKLPEGAKIVKIEVEYDKKTKKVTIKIEIKVNGKTYTFEIKSAGGSAGGSA [r18_354_TrROS_Hall]
readout: folding stability dG unfold
reading: 4.39 kcal/mol
//
recordSequence: SAGGSAGGSAGMTVEVVKSVVPTKTNETVIVTTVTEVEPPTGKVTTLETKTVSTANPELLSAGGSAGGSAGG [r11_777_JUSTAS]
readout: folding stability dG unfold
reading: -0.395 kcal/mol
//
recordSequence: SAGGSAGGSPPESRPFTTDPGPSGEYTAKLLPPDGSSEEVVLPVSQPRTLNVPKDWSFEVLPPSAGGSAGGS [r12_517_JUSTAS]
readout: folding stability dG unfold
reading: 0.157 kcal/mol
//
recordSequence: SAGGSAGGSAGGSSMITVSTTSFPDGTRKVTITEPGTGKPLKTVDMPPSESVSAVKEKLSSAGGSAGGSAGG [r7_633_JUSTAS]
readout: folding stability dG unfold
reading: -0.67 kcal/mol
//
recordSequence: SKMYLVKIKIEVYKDGKLVKEEEIEIEVSEEEAKKLAEKLKEELPGYKVKIEIEVREIEPEDEELLKALESA [r9_782_TrROS_Hall]
readout: folding stability dG unfold
reading: 4.12 kcal/mol
//
recordSequence: SAGGSAGGSMETRTFDSEEELRASVSVPSSLSVTFERRPGRWEVRIEPPLSPEEIAAQRARLLSAGGSAGGS [r12_274_JUSTAS]
readout: folding stability dG unfold
reading: -1.07 kcal/mol

// switching to the query sequence
Prompt: I am curious: what folding stability dG unfold value has been reported for SAGGAEEIRKELGISPEEKVTVKLVVPEGGRPREFTVEMKPDELEKVLEELGVPPEKLEITEVEVIEESAGG [r13_681_JUSTAS] ?
Response: -0.121 kcal/mol
